molecular target: endogenous importin-α1 (human, UniProt P52292 2-529); test: co-IP of GFP-tagged KPNB1 truncations, western blot
measured_property: binding result

1. GFP-KPNB1 H1-6 (receptor, not shown: GFP/EGFP tag (pEGFP-C1, Clontech)) GGGSGGGSGGGSMELITILEKTVSPDRLELEAAQKFLERAAVENLPTFLVELSRVLANPGNSQVARVAAGLQIKNSLTSKDPDIKAQYQQRWLAIDANARREVKNYVLQTLGTETYRPSSASQCVAGIACAEIPVNQWPELIPQLVANVTNPNSTEHMKESTLEAIGYICQDIDPEQLQDKSNEILTAIIQGMRKEEPSNNVKLAATNALLNSLEFTKANFDKESERHFIMQVVCEATQCPDTRVRVAALQNLVKIMSLYY | no binding
2. GFP-KPNB1 H1-4 (receptor, not shown: GFP/EGFP tag (pEGFP-C1, Clontech)) GGGSGGGSGGGSMELITILEKTVSPDRLELEAAQKFLERAAVENLPTFLVELSRVLANPGNSQVARVAAGLQIKNSLTSKDPDIKAQYQQRWLAIDANARREVKNYVLQTLGTETYRPSSASQCVAGIACAEIPVNQWPELIPQLVANVTNPNSTEHMKESTLEAIGYICQDIDPEQLQ | no binding
